Tested on: HCV replicon, genotype-1a variant with glutamine 30 changed to glutamate in the NS5A protein
PROTOCOL_DESCRIPTION: microbe, parasite or virus in culture
Assay type: cell-based, HCV genotype 1a
TEST_CONTEXT: HCV replicon genotype 1a Q30E (Q→E) variant; test compound titrated with an NS5A-targeting compound (BMS-790052 fixed at 200 nM); ranking of synergist activity
READOUT_LABEL: Fold-Synergistic 1a (Q30E)

CC(C)(C)[C@H](Nc1nc(C(F)(F)F)c(Cl)s1)c1nc(-c2ccc(-c3ccc(-c4c[nH]c([C@@H](Nc5nc(C(F)(F)F)c(Cl)s5)C(C)(C)C)n4)cc3)cc2)c[nH]1	<10 fold
COc1cc2ccccc2c(C(=O)N2CCCC2c2ncc(-c3ccc(-c4ccc(-c5cnc(C(NC(=O)C(C)(C)C)C(C)C)[nH]5)cc4)cc3)[nH]2)n1 (stereo not shown)	>100 fold
O=C(N1CCC[C@H]1c1ncc(-c2ccc(-c3ccc(-c4cnc([C@@H]5CCCN5C(=O)C5(c6ccc(F)cc6Cl)CCCC5)[nH]4)cc3)cc2)[nH]1)C1(c2ccc(F)cc2Cl)CCCC1	<10 fold
CC1(C(=O)N[C@H](c2nc(-c3ccc(-c4ccc(-c5c[nH]c([C@@H](NC(=O)C6(C)OCC(F)(F)CO6)C(C)(C)C)n5)cc4)cc3)c[nH]2)C(C)(C)C)OCC(F)(F)CO1	>100 fold
CC(C)(C)[C@H](NC(=O)CC1CC(F)(F)C1)c1nc(-c2ccc(-c3ccc(-c4c[nH]c([C@@H](NC(=O)CC5CC(F)(F)C5)C(C)(C)C)n4)cc3)cc2)c[nH]1	>100 fold
CC(C)[C@H](NC(=O)C1CCC(F)(F)CC1)c1nc(-c2ccc3c(c2)Cc2cc(-c4c[nH]c([C@@H](NC(=O)C5CCC(F)(F)CC5)C(C)C)n4)ccc2-3)c[nH]1	>100 fold
CC(C)(C)OC(=O)N[C@@H]1CCCC(C(=O)N[C@H](c2nc(-c3ccc(-c4ccc(-c5c[nH]c([C@@H](NC(=O)C6CCC[C@@H](NC(=O)OC(C)(C)C)C6)C(C)(C)C)n5)cc4)cc3)c[nH]2)C(C)(C)C)C1 (stereo partly shown)	>100 fold
O=C(c1nccc2ccccc12)N1CCC[C@H]1c1ncc(-c2ccc(-c3ccc(-c4cnc([C@@H]5CCCN5C(=O)c5nccc6ccccc56)[nH]4)cc3)cc2)[nH]1	>100 fold
COC(=O)C1([C@H](CC(C)C)C(=O)N[C@H](c2nc(-c3ccc(-c4ccc(-c5c[nH]c([C@@H](NC(=O)[C@@H](CC(C)C)C6(C(=O)OC)CC=CC6)C(C)(C)C)n5)cc4)cc3)c[nH]2)C(C)(C)C)CC=CC1	>100 fold
COC(C)(C)C(=O)N[C@H](c1nc(-c2ccc(-c3ccc(-c4c[nH]c([C@@H](NC(=O)C(C)(C)OC)C5(C)CC5)n4)cc3)cc2)c[nH]1)C1(C)CC1	>100 fold
COC(=O)N[C@@H](C(=O)NC1(c2nc(-c3ccc(-c4ccc(-c5c[nH]c(C6(NC(=O)[C@H](NC(=O)OC)C(C)C)CCCCC6)n5)cc4)cc3)c[nH]2)CCCCC1)C(C)C	>10 fold
CC(C)(C)[C@H](NC(=O)C1(CO)CCCCO1)c1nc(-c2ccc(-c3ccc(-c4c[nH]c([C@@H](NC(=O)C5(CO)CCCCO5)C(C)(C)C)n4)cc3)cc2)c[nH]1 (stereo partly shown) [Compound P-181]	>100 fold
NC(=O)CCC(=O)N1CCC[C@H]1c1ncc(-c2ccc(-c3ccc(-c4cnc([C@@H]5CCCN5C(=O)CCC(N)=O)[nH]4)cc3)cc2)[nH]1	<10 fold
CC(C)(C)OC(=O)N1CCC[C@H]1C(=O)N[C@H](c1nc(-c2ccc(-c3ccc(-c4c[nH]c([C@@H](NC(=O)[C@@H]5CCCN5C(=O)OC(C)(C)C)C(C)(C)C)n4)cc3)cc2)c[nH]1)C(C)(C)C	>100 fold
COC1CC(C(=O)N[C@H](c2nc(-c3ccc(-c4ccc(-c5c[nH]c([C@@H](NC(=O)C6CC(OC)C6)C(C)(C)C)n5)cc4)cc3)c[nH]2)C(C)(C)C)C1 (stereo partly shown)	>100 fold
O=C(Cc1c[nH]c2ccccc12)N1CCC[C@H]1c1ncc(-c2ccc(-c3ccc(-c4cnc([C@@H]5CCCN5C(=O)Cc5c[nH]c6ccccc56)[nH]4)cc3)cc2)[nH]1	>10 fold
COC(=O)N[C@H](C(=O)NC(C)(C)c1nc(-c2ccc(-c3ccc(-c4c[nH]c(C(C)(C)NC(=O)[C@@H](NC(=O)OC)C(C)C)n4)cc3)cc2)c[nH]1)C(C)C	<10 fold
CC(C)(C)[C@H](NC(=O)[C@H]1[C@@H]2COC[C@@H]21)c1nc(-c2ccc(-c3ccc(-c4c[nH]c([C@@H](NC(=O)[C@H]5[C@@H]6COC[C@@H]65)C(C)(C)C)n4)cc3)cc2)c[nH]1	>100 fold
CC(C)(C(=O)N[C@H](c1nc(-c2ccc(-c3ccc(-c4c[nH]c([C@@H](NC(=O)C(C)(C)C5(O)CCC(F)(F)CC5)C5CC5)n4)cc3)cc2)c[nH]1)C1CC1)C1(O)CCC(F)(F)CC1	>100 fold

Values were extracted from patent US9326973B2.
